biological target: recombinant human GM-CSF protein (human, UniProt P04141 18-144); test: ELISA
Sequence (P04141 18-144): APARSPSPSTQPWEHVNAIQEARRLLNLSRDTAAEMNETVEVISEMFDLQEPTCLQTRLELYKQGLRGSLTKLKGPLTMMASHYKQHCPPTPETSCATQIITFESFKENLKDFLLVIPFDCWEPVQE
pEC50: −log10 of the molar value.
Test readout: pEC50

- Binder: "Hu50C5-23 (antibody, V domains shown) VH: EVQLVQSGAEVKKPGSSVKVSCKASGYIFTPYSIHWVRQAPGQGLEWIGYINPSTGYIEYNQHFKDRTTLTADKSTSTAYMELRSLRSEDTAVYYCARGGDYEGYFDYWGQGTTVTVSS VL: DIQMTQSPSSLSASVGDRVTITCRLNENIYSFLAWYQQKPGKAPKLLVYNAETLAEDVPSRFSGSGSGTDFTLTISSLQPEDFATYYCQQHYGTPYTFGGGTKVEIK"
  Reported result: 9.45
- Binder: "Hu50C5-15 (antibody, V domains shown) VH: EVQLVQSGAEVKKPGSSVKVSCKASGYIFSPYSIHWVRQAPGQGLEWIGYINPSTGYIEYNQHFKDRVTITADKSTSTAYMELRSLRSEDTAVYYCARGGDYEGYFDYWGQGTTVTVSS VL: DIQMTQSPSSLSASVGDRVTITCRLNENIYSFLAWYQQKPGKSPKLLVYNAETLAEDVPSRFSGSGSGTQFTLTISSLQPEDFATYYCQQHYGTPYTFGGGTKVEIK"
  Reported result: 8.56
- Binder: "Hu50C5-16 (antibody, V domains shown) VH: EVQLVQSGAEVKKPGSSVKVSCKASGYIFSPYSIHWVRQAPGQGLEWIGYINPSTGYIEYNQHFKDRTTLTADKSTSTAYMELRSLRSEDTAVYYCARGGDYEGYFDYWGQGTTVTVSS VL: DIQMTQSPSSLSASVGDRVTITCRLNENIYSFLAWYQQKPGKAPKLLIYNAETLAEGVPSRFSGSGSGTDFTLTISSLQPEDFATYYCQQHYGTPYTFGGGTKVEIK"
  Reported result: 9.34
- Binder: "Hu50C5-20 (antibody, V domains shown) VH: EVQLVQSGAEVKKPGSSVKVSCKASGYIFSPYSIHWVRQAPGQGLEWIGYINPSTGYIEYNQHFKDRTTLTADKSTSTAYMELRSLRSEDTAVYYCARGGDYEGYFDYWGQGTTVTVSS VL: DIQMTQSPSSLSASVGDRVTITCRLNENIYSFLAWYQQKPGKSPKLLVYNAETLAEDVPSRFSGSGSGTQFTLTISSLQPEDFATYYCQQHYGTPYTFGGGTKVEIK"
  Reported result: 9.52
- Binder: "50C5 chimera (antibody, V domains shown) VH: QVQLQQSAAELVRPGASVKMSCKASGYIFTPYSIHWIKQRPGQGLEWIGYINPSTGYIEYNQHFKDRTTLTADKSSSTAYMQLRSLTSEDSAVYYCARGGDYEGYFDYWGQGTTLTVSS VL: DIQMTQSPDSLSASVGETVTITCRLNENIYSFLAWYQQRQGKSPQLLVYNAETLAEDVPSRFSGSGSGTQFSLKISSLQTDDFGTYYCQQHYGTPYTFGGGTNLEIE"
  Reported result: 9.26
- Binder: "Hu50C5-17 (antibody, V domains shown) VH: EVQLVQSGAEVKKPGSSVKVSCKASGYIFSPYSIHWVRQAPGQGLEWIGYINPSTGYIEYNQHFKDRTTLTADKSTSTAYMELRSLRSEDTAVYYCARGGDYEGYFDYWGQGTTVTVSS VL: DIQMTQSPSSLSASVGDRVTITCRLNENIYSFLAWYQQKPGKAPKLLVYNAETLAEGVPSRFSGSGSGTDFTLTISSLQPEDFATYYCQQHYGTPYTFGGGTKVEIK"
  Reported result: 9.67

Attribution: patent US20180362632A1
